Molecular target: Tyrosyl-tRNA synthetase, putative (Trypanosoma cruzi (strain CL Brener)) (UniProt Q4DSP6)
Experiment: Trypanosoma cruzi tyrosyl tRNA synthetase (TcYRS) SOP
Assay type: functional
Design: scale not given: direction of the effect not stated beside the values
Settings: 30 µM
Readout type: Percent Effect (%)
Hi! Could you send only the number? It should be in %, unit omitted.

Example compounds with recorded Percent Effect:
>  <Given smiles>
Cc1ccc(NC2CCN(C(=O)c3c(C)noc3C)CC2)nn1

>  <Units>
%

>  <Percent Effect>
12.2

$$$$
>  <Given smiles>
Cc1nc(N2CCCCC2)ncc1C(=O)N1CC(C)(C)[C@@](C)(O)C1

>  <Units>
%

>  <Percent Effect>
6.17

$$$$
>  <Given smiles>
COC(=O)C1CCN(C(=O)c2ccc(NS(C)(=O)=O)c(C)c2)CC1

>  <Units>
%

>  <Percent Effect>
0

$$$$
>  <Given smiles>
COc1ccc(NC(=O)Cn2nc(C)ccc2=O)cc1OC

>  <Units>
%

>  <Percent Effect>
5.13

$$$$

// query Form field: reported Percent Effect of c1cnc(N2CCC3(CC2)CN(CC2CC2)c2ccccc23)nc1
// result 20

// query Percent Effect lookup needed for Fc1cccnc1OC[C@@]12CCO[C@@H]1CCN(CC1CCOCC1)C2 , thanks.
// result 13.6

---

Target: Protein translocase subunit SecA (Escherichia coli (strain K12))
Assay: Assay to Identify E. coli SecA ATPase Inhibitors
Assay type: functional
Design: scale not given: direction of the effect not stated beside the values
Conditions: 30 µM
Measured potencies and affinities stand elsewhere.
// Percent Effect lookup, one value per entry
Provide only the numeric value, understood in %.

Example cases with answers are listed next.
>  <Compound>
CC(C)NC(=O)Nc1ccc(CNCc2cccc(OC(F)F)c2)cc1

>  <Readout type>
Percent Effect

>  <Units>
%

>  <Observed value>
-3.77

$$$$
>  <Compound>
Fc1cccnc1OC[C@@]12CCO[C@@H]1CCN(CC1CCOCC1)C2

>  <Readout type>
Percent Effect

>  <Units>
%

>  <Observed value>
-3.83

$$$$
>  <Compound>
CN1CCN(CC2CC2)C(=O)c2cnc(N3CC[C@@H](O)C3)nc21

>  <Readout type>
Percent Effect

>  <Units>
%

>  <Observed value>
-3.96

$$$$
>  <Compound>
c1cnc2c(c1)cc([C@H]1CCCO1)n2CCN1CCOCC1

>  <Readout type>
Percent Effect

>  <Units>
%

>  <Observed value>
-4.11

$$$$
>  <Compound>
NC(=O)c1cc(C2CCCN(CCOCC(F)(F)F)C2)n[nH]1 (stereo unspecified)

>  <Readout type>
Percent Effect

>  <Units>
%

>  <Observed value>
-3.84

$$$$

Please find the next compound below.
// query I would be grateful if you could share the reported Percent Effect for Cc1cc(C(=O)N2CCCCC2c2nc(C)cs2)[nH]n1 (stereo unspecified) .
// result -4.07

---

Target: Ubiquitin-activating enzyme e1, putative (Leishmania donovani (strain BPK282A1)) (UniProt E9BSI1)
Sequence (whole entry): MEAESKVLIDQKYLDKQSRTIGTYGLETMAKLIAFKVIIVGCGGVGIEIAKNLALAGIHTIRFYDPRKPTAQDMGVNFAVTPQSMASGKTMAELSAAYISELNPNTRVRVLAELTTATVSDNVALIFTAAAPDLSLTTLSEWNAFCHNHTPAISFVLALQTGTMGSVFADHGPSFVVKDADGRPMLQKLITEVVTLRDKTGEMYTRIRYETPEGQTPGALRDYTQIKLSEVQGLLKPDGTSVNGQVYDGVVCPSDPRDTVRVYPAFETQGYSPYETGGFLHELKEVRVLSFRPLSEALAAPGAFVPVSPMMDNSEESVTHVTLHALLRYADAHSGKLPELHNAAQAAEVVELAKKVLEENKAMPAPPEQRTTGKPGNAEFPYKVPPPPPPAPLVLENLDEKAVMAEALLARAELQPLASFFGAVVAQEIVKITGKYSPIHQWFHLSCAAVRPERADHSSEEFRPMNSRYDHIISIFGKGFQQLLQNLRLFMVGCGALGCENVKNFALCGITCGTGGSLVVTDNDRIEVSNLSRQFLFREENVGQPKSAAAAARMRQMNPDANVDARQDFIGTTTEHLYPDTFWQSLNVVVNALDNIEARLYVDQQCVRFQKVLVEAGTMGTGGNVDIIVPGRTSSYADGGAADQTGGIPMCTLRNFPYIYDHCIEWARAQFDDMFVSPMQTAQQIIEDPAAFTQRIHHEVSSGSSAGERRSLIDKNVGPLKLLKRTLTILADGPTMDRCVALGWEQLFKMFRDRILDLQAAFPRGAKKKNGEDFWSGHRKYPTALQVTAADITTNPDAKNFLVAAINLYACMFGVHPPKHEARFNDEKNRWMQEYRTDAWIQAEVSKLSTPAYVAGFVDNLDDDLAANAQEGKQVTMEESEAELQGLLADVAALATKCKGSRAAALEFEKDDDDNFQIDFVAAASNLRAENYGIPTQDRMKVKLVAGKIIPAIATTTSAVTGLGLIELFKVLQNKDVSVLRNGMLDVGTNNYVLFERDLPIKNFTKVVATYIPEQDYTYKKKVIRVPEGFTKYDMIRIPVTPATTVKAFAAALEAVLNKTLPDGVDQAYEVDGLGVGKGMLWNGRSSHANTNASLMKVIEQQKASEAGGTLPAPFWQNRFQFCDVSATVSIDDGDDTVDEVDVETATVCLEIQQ
Assay: Leishmania donovani Ubiquitin Activating Enzyme (LdE1)
Type: functional
Parameters: scale not given: direction of the effect not stated beside the values
Conditions: 30 µM
Entries with a potency or affinity are not part of this list.
Readout type: Percent Effect (%)
Write it as a number; the unit % goes unstated.

>  <Molecule>
Cc1cnn(CC(C)NCc2csc(-c3cnn(C)c3)n2)c1 (stereo not given)

>  <Percent Effect / %>
19

$$$$
>  <Molecule>
CC(C)NC(=O)Nc1ccc(CS(=O)(=O)C(C)(C)C)cc1

>  <Percent Effect / %>
2.63

$$$$
>  <Molecule>
CCN1CCN(c2ccc(CNC(=O)c3ccc(Cl)o3)cn2)CC1

>  <Percent Effect / %>
21.3

$$$$

// query Could you tell me which Percent Effect is on file for CS(=O)(=O)CC(=O)N1C[C@@H]2COC[C@]2(c2nnc(C3CC3)o2)C1 ?
// result 21.3

// query State the recorded Percent Effect for this entry: O=C(NCCNc1ccccn1)N1CCSCC1
// result 5.41

// query # query: Percent Effect of entry CC(=O)N1CCCn2nc(CNS(=O)(=O)c3cc(C)cs3)cc2C1
// result 2.7

// query Can you look up the measured Percent Effect of Cc1cc(CN(C)C(=O)NC2CCS(=O)(=O)C2)no1 (stereo not given) for me?
// result 13

// query Given O=S(=O)(C1CC1)N1CCC2(CC1)CC(Oc1cccnc1)CO2 (stereo not given) , state its recorded Percent Effect.
// result 9.09

// query Recorded Percent Effect of COc1ccc(-c2ccnc3c2C(=O)CCC3)cc1 , please.
// result 22.7

// query Fill in: Percent Effect of O=C(c1ccno1)N1CCC2(CC1)C(=O)N(CC1CC1)c1ccccc12 is ___
// result -29.9

---

Molecular target: Chromo domain-containing protein 1 (Saccharomyces cerevisiae (strain ATCC 204508 / S288c) (Baker's yeast))
Assay: ScCHD-1 Enzyme Inhibition Assay; note: in the data most compounds retested in dose-response had high values
Type: functional
Design: scale not given: direction of the effect not stated beside the values
Settings: 30 µM
Readout type: Percent Effect (%)
Reply with just the number (in %).

>  <Compound>
Cn1ccnc1CN1C[C@@H](CN2CCC(CO)CC2)[C@@H](CO)C1

>  <Percent Effect [%]>
-5.25

$$$$
>  <Compound>
Cc1n[nH]c(=O)c2c(NC(=O)CN3CCCC(C(F)(F)F)C3)oc(C)c12 (centres undefined)

>  <Percent Effect [%]>
-4.61

$$$$
>  <Compound>
O=S(=O)(c1ccccc1)N1CCCCC1c1cc[nH]n1 (centres undefined)

>  <Percent Effect [%]>
-28

$$$$

// query I am curious: what Percent Effect value has been reported for COCCn1ccc(NC(=O)Nc2ccc(C(N)=O)c(F)c2)n1 ?
// result 75.5

---

Molecular target: Tyrosyl-tRNA synthetase, putative (Trypanosoma cruzi (strain CL Brener)) (UniProt Q4DSP6)
Sequence (whole entry): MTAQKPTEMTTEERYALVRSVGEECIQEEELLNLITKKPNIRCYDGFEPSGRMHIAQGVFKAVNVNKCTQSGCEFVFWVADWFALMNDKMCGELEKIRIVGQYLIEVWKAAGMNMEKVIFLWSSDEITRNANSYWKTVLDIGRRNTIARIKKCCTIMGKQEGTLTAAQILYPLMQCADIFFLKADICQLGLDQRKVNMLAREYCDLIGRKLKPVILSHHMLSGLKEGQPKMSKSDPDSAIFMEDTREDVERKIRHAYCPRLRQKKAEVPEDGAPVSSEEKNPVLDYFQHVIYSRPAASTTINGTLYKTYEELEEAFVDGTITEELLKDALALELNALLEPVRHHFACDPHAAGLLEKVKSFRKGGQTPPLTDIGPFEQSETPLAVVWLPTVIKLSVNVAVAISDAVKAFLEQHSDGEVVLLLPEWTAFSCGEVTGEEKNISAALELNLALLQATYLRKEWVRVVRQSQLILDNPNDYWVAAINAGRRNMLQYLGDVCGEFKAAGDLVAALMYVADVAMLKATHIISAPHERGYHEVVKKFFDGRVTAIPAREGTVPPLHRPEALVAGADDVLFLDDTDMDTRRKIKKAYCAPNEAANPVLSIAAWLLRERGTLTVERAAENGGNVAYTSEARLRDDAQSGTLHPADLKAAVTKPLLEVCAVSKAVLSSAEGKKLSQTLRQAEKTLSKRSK
Experiment: Trypanosoma cruzi tyrosyl tRNA synthetase (TcYRS) _High Tyrosine SOP; note: in the data most compounds retested in dose-response had high values
Assay type: functional
Parameters: scale not given: direction of the effect not stated beside the values
Details: 30 µM
Readout type: Percent Effect (%)
I only need the number, in %, no unit after it.

>  <Molecule>
CCc1ccc(CN2CCC3(CC2)CNC(=O)CO3)o1

>  <Percent Effect / %>
2.97

$$$$
>  <Molecule>
COc1cccc(OCC2CCCN(C3CCN(C(C)=O)CC3)C2)c1 (stereo unspecified)

>  <Percent Effect / %>
4.76

$$$$
>  <Molecule>
CC(C)Cc1noc(CN2CCOCC2)n1

>  <Percent Effect / %>
5.39

$$$$

// query Give its Percent Effect value. Item: COCCN1C(=O)CCC12CCN(C(=O)NC(C)C)CC2
// result 1.93

// query Which measured Percent Effect value corresponds to CCOCC1CN(C(=O)c2cscn2)Cc2nnn(CC3CC3)c21 (stereo unspecified) ?
// result 2.16

// query # input molecule: CNCC(=O)N1CC(c2cc(Nc3ncccn3)nc(C)n2)C1 ; wanted: its Percent Effect
// result 10.6
